experimental system: T1, human FLT3 protein (human, UniProt P36888 27-541, limits assumed)
T1 construct: protein coated in the screening ELISA; also called ELISA FLT3
assay protocol: colorimetric ELISA, periplasmic extract
property measured: ELISA FLT3 (absorbance)

[A] FLL62 (VHH, llama anti-FLT3 variable domain; E. coli periplasmic extract) VHH: QVQLQESGGGLVQAGGSLRLSCAASGSTSSRNYIDWYRQAPGKQREWVAQITSGGNTHYEPSLKGRFTISRDNAKNTAYLQMNSLKPEDTAVYYCRILDYWGQGTQVTVSS
[B] FLL57 (VHH, llama anti-FLT3 variable domain; E. coli periplasmic extract) VHH: QVQLQESGGGLVQAGGSLRLSCAASGSTFSKNYIDWYRQAPGKQREWVAQITSGGNTHYEPSLKGRFTISRDNAKNTAYLQMNSLKPEDTAVYYCRILDYWGQGTQVTVSS
Request: I'd appreciate it if you could identify which of A and B has the greater ELISA FLT3 (absorbance). Refer to your chosen entry by its label in the reply.
Result: B
(B: 1.4 absorbance, A: 0.5 absorbance)
